# Method Notes: yeast display, Sf9 membrane polyspecificity reagent, FACS + sequencing; frameworks hold sequencing errors
Measurement Label: polyreactivity (PSR sort gate)

The following sequences have reported results that may help.
[
  {
    "Sequence Record": "QVQLVESGGRLVQAGASLRLSCAASGFTFGGYAMGWYRQPHGKQRELVAAIDSSGGRTYNADSVKGRFTISRDNAKNTVYLQMNSLKPEDTAVYYCNAVYGSDGYDYWGQGTQVTVSS",
    "polyreactivity (PSR sort gate)": "high polyreactivity"
  },
  {
    "Sequence Record": "QVQLVESGGGLVQAGGSLRLSCAASGFIFYRWYALGWYIQAPGKERELVAAIRSGGSTYYADSVKGRFTISRDNAKNTVYLQMNSLKPEDTAVYYCSTSGPQYYSRHFDYWGEGTQVTVSS",
    "polyreactivity (PSR sort gate)": "low polyreactivity"
  },
  {
    "Sequence Record": "QVKLVESGGGLVQAGGSRRLSCAASGLIFYSYAMGWSRQAPGKERELVAAISSRGGSTYYADSVKGRFTISRDNAKNTVYLQMNSLKPDDTAVYYCNAYFLLPHYDYWGQGTQVTVSS",
    "polyreactivity (PSR sort gate)": "low polyreactivity"
  },
  {
    "Sequence Record": "QVQLVESGGGLVQAGGSLLLSCAASGITFIRNGMGWYRPAPGKERELVAAISDTGARTYYADSVKGRFTISRDNAKNTVYLQMNSLKPEDTAVYYCAADFQTYWSHLYGYIGQYDYWGQGTQVTVSS",
    "polyreactivity (PSR sort gate)": "low polyreactivity"
  },
  {
    "Sequence Record": "QVQLVESGGGLDQAGGSLRLSCAASGRTFYTYVMGWYRQAPGKEREFLAAITYSGGSTYYADSVKGRFTISRDNAKNTVYLQMNSLKTEDSAVYYCNAEWTYSEWYGQYLEFDYWGQGTQVTVSS",
    "polyreactivity (PSR sort gate)": "high polyreactivity"
  }
]

Please go through the list and note polyreactivity (PSR sort gate) for each sequence.
1. QVQLVESGGGLVQAGGSLRLSSAASGFILGYNTMGWYRQAPGKESELVAAINLSGASTYYADSVKGRFTISRDNAKNTVYLQMNSLKPEDTAVYYCGVRFYSGPGGYPTTRYYYWGQGTQVTVSS
2. QVQLVESGGGLVQAGGSLRLSCAASGRTFSVYVMGWYRQAPGKERELVAAISSSGGRTYYADSVKGRFTISRDNAKNTVYLQMNSLKPEDTAVYYCAAETIVFYVEYNYWGQGTQVTVSS
3. QVQLVESGGGLVQAGGSLRLSCAASGSTFYFNAMGWYRQAPGKARELVAAIDWSGGSTYYADSVKGRFTISRDNAKNTVYLQMNSLKPEDTAVYYCAAPYHYYGNTVGYADYDYWGQGTQVTVSS
4. HVQLVESGGGLVQAGGSLRLSCAASGNTFKYYAMGWYRQAPGKERELVAAISYSGGSTYYADSVKGRFTISRDNAKNTVYLQMNSLKPEDTAVYYCAADLDSERYYWGQGTQVTVSS
5. QVQLVESGGGLVQAGGSLRLSCAAYGIIFRLKARGSNRQSPGKERELVAAITRRGGTTYYADSVKGRFTISRDNAKYTVYLQMNSLKPEDTAVFFCNTYYYWQYDWGQGTQVSVSS

## Output
["high polyreactivity", "low polyreactivity", "low polyreactivity", "low polyreactivity", "high polyreactivity"]

Please go through the list and note polyreactivity (PSR sort gate) for each sequence.
1. QVQLVDSGGGLVQAGGSLRLSCAASGRIFFPNGMGWYRQAPGKERELVATISRIGGSTYYADSVKGRFTISRDNAMNTVYLQRNSLKPEDTAVYYCAAQYSYGVYWTLPYGYNYWGQGTQVTVSS
2. QVQLVESGGGLVQAGGSLLLSCAASGRIFRVYAMGWYRQAPGKERELVASITTSGSTYYADSVKGRFTISRDNAKNTVYLQMNSLKPEDTAVYYCAVDNYYTPWYPYLGYDSWGQGTQVTVSS

## Output
low polyreactivity
low polyreactivity
